meta.source: patent US20240279233A1

Target: human recombinant TAK1-TAB1 Kinase (TAK1 (1-303) and TAB1 (437-end)) (Homo sapiens (Human), UniProt O43318)
Sequence (O43318 other isoform, or with tags, fused parts or gaps): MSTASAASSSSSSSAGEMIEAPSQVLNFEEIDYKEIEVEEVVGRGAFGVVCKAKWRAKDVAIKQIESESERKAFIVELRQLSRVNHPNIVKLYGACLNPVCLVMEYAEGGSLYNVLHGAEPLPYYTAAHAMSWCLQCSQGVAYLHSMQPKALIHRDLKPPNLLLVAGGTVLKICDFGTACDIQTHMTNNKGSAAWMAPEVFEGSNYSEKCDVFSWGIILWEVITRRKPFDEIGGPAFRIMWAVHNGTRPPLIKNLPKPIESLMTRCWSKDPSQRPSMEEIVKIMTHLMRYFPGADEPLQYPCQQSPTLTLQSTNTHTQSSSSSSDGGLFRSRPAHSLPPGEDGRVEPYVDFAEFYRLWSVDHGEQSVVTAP
Test: TAK1 biochemical ADP-Glo kinase assay
Conditions: 1 mM ATP, MBP substrate; read-out: TAK1 Mean IC50 (nM) @ 1 mM ATP
reportedProperty: IC50 (nM)
Numbers only, in nM.

Here is how some compounds turned out for IC50.
C[C@H]1CCCCNC(=O)c2cccc(c2)C(=O)/N=C2\Nc3cccc(C(=O)N4CCC5(CCO5)C4)c3N21 (single isomer, unassigned) [Example 120] ... 14
C[C@H]1CCCCNC(=O)c2cccc(c2)C(=O)/N=C2\Nc3cccc(C(=O)N4C[C@H]5C[C@@H]4CO5)c3N21 [Example 112] ... 8
C[C@H]1CCCCNC(=O)c2cccc(c2)C(=O)/N=C2\Nc3cccc(N4CCN(C)C4=O)c3N21 [Example 74] ... 11
C[C@H]1CCCCNC(=O)c2cccc(c2)C(=O)/N=C2\Nc3cccc(C(=O)N4CC[C@@](C)(O)C4)c3N21 [Example 106] ... 6
CC1CCCCNC(=O)c2cccc(c2)C(=O)/N=C2\Nc3cccc(N4CCN(C5COC5)C4=O)c3N21 (single isomer, unassigned) [Example 144] ... 10

Please supply IC50 for each of the following items, keeping them in order.
1. CC1CCCCNC(=O)c2cccc(c2)C(=O)Nc2nc3cccc(-c4nccn4C(F)F)c3n21 (single isomer, unassigned) [Example 91]
2. Cc1nnc(-c2cccc3c2N2/C(=N/C(=O)c4cccc(c4)C(=O)NCCCC[C@@H]2C)N3)n1C(C)C [Example 134]

Result:
[19, 12]

Please supply IC50 for each of the following items, keeping them in order.
1. C[C@H]1CCCCNC(=O)c2cccc(c2)C(=O)/N=C2\Nc3cccc(-c4cn(C)nn4)c3N21 [Example 87]
2. C[C@H]1CCCCNC(=O)c2cccc(c2)C(=O)/N=C2\Nc3cccc(-c4cn(C5COC5)nn4)c3N21 [Example 129]
3. CC1CCCCNC(=O)c2cccc(c2)C(=O)/N=C2\Nc3cccc(C(=O)N(C)CCF)c3N21 (single isomer, unassigned) [Example 71]

Result:
[9, 6, 27]

* * *

Molecular target: human recombinant TAK1-TAB1 Kinase (TAK1 (1-303) and TAB1 (437-end)) (Homo sapiens (Human), UniProt O43318)
Assay: TAK1 biochemical ADP-Glo kinase assay
Conditions: 10 μM ATP, MBP substrate; read-out: TAK1 Mean IC50 (nM) @ 10 μM ATP
Threshold 6 nM: IC50 strictly smaller gives criterion met, otherwise criterion not met.

C[C@@H]1CCCCNC(=O)c2cccc(c2)C(=O)Nc2nc3cccc(N4CCN(C)C4=O)c3n21 ... criterion met
COC1CN(C(=O)c2cccc3c2N2/C(=N/C(=O)c4cccc(c4)C(=O)NCCCCC2C)N3)C1 (single isomer, unassigned) [Example 82] ... criterion not met
CC1CCCCNC(=O)c2cccc(c2)C(=O)/N=C2\Nc3cccc(N4CCN(C5CC5)C4=O)c3N21 (single isomer, unassigned) ... criterion not met
CC(C)N(C)C(=O)c1cccc2c1N1/C(=N/C(=O)c3cccc(c3)C(=O)NCCCCC1C)N2 (stereo not shown) [Example 48] ... criterion met
CN1CCN(Cc2ccc3c(c2)N/C2=N\C(=O)c4csc(c4)C(=O)NCCCCCN23)CC1 ... criterion met
CC1CCCCNC(=O)c2cccc(c2)C(=O)Nc2nc3cccc(C(=O)N4CCN(C)CC4)c3n21 (stereo not shown) ... criterion met
CC1CCCCNC(=O)c2cccc(c2)C(=O)/N=C2\Nc3cccc(C(=O)N4CCOC[C@@H]4C)c3N21 (single isomer, unassigned) [Example 77] ... criterion met
Cc1nnc(-c2cccc3c2N2/C(=N/C(=O)c4cccc(c4)C(=O)NCCCCC2C)N3)o1 (single isomer, unassigned) [Example 133] ... criterion not met
CN1CCN(Cc2ccc3c(c2)N2CCCCCNC(=O)c4cccc(c4)C(=O)/N=C/2N3)CC1 ... criterion not met
COC(=O)c1cccc2nc3n(c12)C(C)CCCCNC(=O)c1cccc(c1)C(=O)N3 (stereo not shown) ... criterion met

Query: Say whether its IC50 is strictly beneath 6 nM. Entry: CN(C)C(=O)c1cccc2c1N1/C(=N/C(=O)c3cccc(c3)C(=O)NCCCCC13CC3)N2
Result: criterion met

Query: Moving on to CC1CCCCNC(=O)c2cccc(c2)C(=O)/N=C2\Nc3cccc(C(=O)N(C)CC(F)F)c3N21 (single isomer, unassigned) [Example 73]
Result: criterion met
